Data credit: PubChem BioAssay (NCATS)

Assay: qHTS of pediatric cancer cell lines to identify multiple opportunities for drug repurposing: Primary screen for MG 63 (6-TG R) cells (AID 1347105); further: nearly all actives have a fitted effect of over 50% in size
Details: MG 63 (6-TG R) viability, CellTiter-Glo, 48 h; series mostly up to 46 µM
Description: Drug repurposing or repositioning has been offered as a strategy for drug development in oncology programs. This approach has special potential for childhood cancers and other rare or orphan diseases, where the expected return on new drug development has been a disincentive to pharmaceuticals. […] We employed a titration-based paradigm (quantitative high-throughput screening or qHTS), where all compounds were tested at multiple concentrations for their effect on cell viability. […]
Results filed as inconclusive are left out. Calls of active or inactive are those of the source. The call rests on the fitted dose curve; in most records, active means well fitted cell-killing curve with a large enough effect; inconclusive means small, poorly fitted or top-dose-only effect; inactive means no such curve, though single readings can be large or run the other way.
Mark one answer only. Choices: 1 (active), -1 (inactive)

- molecule: "Cc1ccc(C(=O)Nc2ccc(S(=O)(=O)O)c3cc(S(=O)(=O)O)cc(S(=O)(=O)O)c23)cc1NC(=O)c1cccc(NC(=O)Nc2cccc(C(=O)Nc3cc(C(=O)Nc4ccc(S(=O)(=O)O)c5cc(S(=O)(=O)O)cc(S(=O)(=O)O)c45)ccc3C)c2)c1"
  classification: -1
- molecule: "CC(CCc1ccc(O)cc1)NCCc1ccc(O)c(O)c1 (centres undefined)"
  classification: -1
- molecule: "Cn1c(=O)c2[nH]cnc2n(C)c1=O"
  classification: -1
- molecule: "Cc1cnc(C(=O)NCCc2ccc(S(=O)(=O)NC(=O)NC3CCCCC3)cc2)cn1"
  classification: -1
- molecule: "CC12CC3CC(C)(C1)CC(N)(C3)C2"
  classification: -1

Would you kindly look at the next entry?
// outcome(item) with item = CN(C)C(=N)N=C(N)N -1
